# SYSTEM_NAME: ZFP SBS#533 (synthetic)
# Sequence (chain, as listed by the source): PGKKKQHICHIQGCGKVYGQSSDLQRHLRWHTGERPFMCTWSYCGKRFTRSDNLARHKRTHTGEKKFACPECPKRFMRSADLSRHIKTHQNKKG
# EXPERIMENT_NOTES: EMSA
# CONDITIONS_USED: tags: MBP fusion
PROPERTY_NAME: Kd (nM)

> print(dat)
                                     binder  property.name  quantity.unit  value.reported
1  GCGGAGGCTT (dsDNA) DNA 1: GCGGAGGCTT DNA 2: AAGCCTCCGC             Kd             nM               7

The origin of these recorded values is patent US20030068675.
